Consider the following compounds; for each one, report its melting point.

Could you report melting point for every entry in the following list?
1. Cc1cc(C)cc(S(=O)(=O)n2c(CCCC(=O)O)cc3nc(Cl)ccc32)c1
2. Cc1nccn1-c1cc(NC(=O)OC(C)(C)C)cc(C(F)(F)F)c1
3. Cn1nc(-c2cc(C=O)c(Cl)cc2F)c(Cl)c1OC(F)F
4. COCC1CN(c2ccc(Br)nc2)C(=O)O1 (racemic)

1. 200 °C
2. 203 to 208 °C
3. 95 to 98 °C
4. 108 to 110 °C

Could you report melting point for every entry in the following list?
1. CC(=O)c1nc2cc(C(F)(F)F)c(Cl)cc2n1-c1ccc(CCNC(=O)NS(=O)(=O)c2ccc(C)cc2)cc1
2. COc1ccc(-c2ccc(C(=O)Nc3cc4ncc(CN5CCCC5)cc4cc3F)c(F)c2)cc1
3. OCc1ccccc1CCc1ccc(Br)cc1
4. CCOC(=O)Cn1cc(Cc2cccc([N+](=O)[O-])c2)c2ccccc21
5. COC(=O)CCCc1cc2nc(Cl)ccc2n1S(=O)(=O)c1ccc(C)cc1
6. CCCn1c(SC)nc2cc(Br)sc2c1=O

225 °C
174 to 176 °C
72 to 75.5 °C
163 to 165 °C
106 °C
138 to 141 °C

###

Consider the following compounds; for each one, report its melting point.

As a guide, the following entries are already answered.
COMPOUND: COC(=O)COc1c(CCC(C)C)c(OC)cc(OC)c1C(=O)CCc1ccc(OC)c(O)c1
melting point: 94 to 95 °C
//
COMPOUND: CC1(c2ccc(S(C)(=O)=O)cc2)OC=C(Br)C(=O)C1Oc1ccc(F)cc1F (centres undefined)
melting point: 230 °C

Could you report melting point for every entry in the following list?
1. c1ccc(CN2CCC(c3nc(-c4ccc(-c5ccccc5)cc4)c[nH]3)CC2)cc1
2. Fc1cc2c(-c3cccs3)c(CBr)cnc2c(F)c1F
3. CCc1nn(C2CCCC2)c2cc(C(=O)Nc3cccnc3)ccc12
4. CCOc1cc(OCCCc2cn(-c3ccccn3)nc2OCC)ccc1CCC(=O)O

1. 110 to 112 °C
2. 98 to 100 °C
3. 133 to 135 °C
4. 110 to 111 °C

###

Consider the following molecules; for each one, report its melting point.

As a guide, the following entries are already answered.
MOLECULE: S=C(Nc1cccc(Cl)c1)N1CCCSC1c1ccccc1 (stereo unspecified)
PARAMETER MEASURED: melting point
REPORTED MEASUREMENT: 132 to 135 °C

MOLECULE: Oc1cccc2c1Oc1ccccc1C21CCN(CC=CCl)CC1
PARAMETER MEASURED: melting point
REPORTED MEASUREMENT: 153 to 155 °C

MOLECULE: CN(C)CCNC(=O)Cc1ccc2ccn(C3CCN(CCc4ccc(F)cc4)CC3)c2c1
PARAMETER MEASURED: melting point
REPORTED MEASUREMENT: 112 to 113 °C

Could you report melting point for every entry in the following list?
1. Clc1ccc(C2=CCN(Cc3coc4ncccc34)CC2)cc1
2. O=C(c1ccc(Cl)cc1)c1cc2ccccc2cn1
3. CC(C)c1cc2nc(N)sc2cc1SC1=C(O)C[C@@](CCc2ccccc2)(C(C)C)OC1=O
4. CCOC(=O)C(=NOC)c1csc(NC(=O)CCl)n1
5. Cc1ccc2c(Cl)ccnc2c1[N+](=O)[O-]
6. COc1ccc(N2CC(=O)NC(=O)N2)cc1C

1: 116 °C; 2: 126 to 127 °C; 3: 197 to 199 °C; 4: 81 to 82 °C; 5: 140 to 147 °C; 6: 69 to 71 °C

Could you report melting point for every entry in the following list?
1. CC(C#CC1CC(Oc2ccc(F)cc2Cl)C1)N(O)C(N)=O (single isomer, unassigned; (+))
2. NC(=NCC(F)(F)F)Nc1nc(CCCCNc2nc3ccccc3[nH]2)cs1

1: 160 °C; 2: 183 to 186 °C

Where do the numbers come from? From a melting point compilation (Tetko et al.; mined from patent text by program, amines drawn as free bases though some values may be those of a salt).
